Recorded values, source patent US20240360144A1.

- Procedure text: Pharmacokinetic assays of compounds after oral gavage administration to rats
- Format: in vivo, male SD rats
- Assay conditions: rat; male SD rats, oral gavage, 30.0 mg/kg, suspension in 0.5% CMC-Na, plasma; read-out: AUC(0-t)
Quantity name: AUC(0-t) (ng·h/mL)

| Compound | Unit descriptor | Result |
| --- | --- | --- |
| C=CC(=O)N1CCC[C@@H](n2nc(-c3ccc(Oc4ccccc4)cc3)c3c(N)ncnc32)C1 [Compound 4-AAM, reference compound] | ng·h/mL | 758 |

----------
- Procedure text: Pharmacokinetic assays of compounds after oral gavage administration to rats
- Format: in vivo, male SD rats
- Parameters: unit not given here
- Assay conditions: male SD rats, oral gavage, 30.0 mg/kg, suspension in 0.5% CMC-Na, plasma

| Molecule | AUMC(0-∞) |
| --- | --- |
| C=CC(=O)N1CCC[C@@H](n2nc(-c3ccc(Oc4ccccc4)cc3)c3c(NC(=O)OCC(C)C)ncnc32)C1 | 2586.7 |
| C=CC(=O)N1CCC[C@@H](n2nc(-c3ccc(Oc4ccccc4)cc3)c3c(NC(=O)OCCC)ncnc32)C1 | 3495.04 |
| C=CC(=O)N1CCC[C@@H](n2nc(-c3ccc(Oc4ccccc4)cc3)c3c(NC(=O)OCCCCCC)ncnc32)C1 | 1696.7 |
| C=CC(=O)N1CCC[C@@H](n2nc(-c3ccc(Oc4ccccc4)cc3)c3c(NC(=O)OCCCC)ncnc32)C1 | 4052.0 |
| C=CC(=O)N1CCC[C@@H](n2nc(-c3ccc(Oc4ccccc4)cc3)c3c(NC(=O)OC(C)C)ncnc32)C1 | 3200.9 |
| C=CC(=O)N1CCC[C@@H](n2nc(-c3ccc(Oc4ccccc4)cc3)c3c(N)ncnc32)C1 [Compound 4-AAM, reference compound] | 2805.6 |

----------
- Procedure text: Pharmacokinetic assays of compounds after oral gavage administration to rats
- Type: in vivo, male SD rats
- Assay conditions: rat; male SD rats, oral gavage, 30.0 mg/kg, suspension in 0.5% CMC-Na, plasma; read-out: Cmax

| Compound | Cmax |
| --- | --- |
| C=CC(=O)N1CCC[C@@H](n2nc(-c3ccc(Oc4ccccc4)cc3)c3c(N)ncnc32)C1 [Compound 4-AAM, reference compound] | 312 ng/mL |

----------
- Procedure text: Pharmacokinetic assays of compounds after oral gavage administration to rats
- Type: in vivo, male SD rats
- Assay conditions: male SD rats, oral gavage, 30.0 mg/kg, suspension in 0.5% CMC-Na, plasma

| Compound | t½z (h) |
| --- | --- |
| C=CC(=O)N1CCC[C@@H](n2nc(-c3ccc(Oc4ccccc4)cc3)c3c(NC(=O)OCCC)ncnc32)C1 | 2.338 |
| C=CC(=O)N1CCC[C@@H](n2nc(-c3ccc(Oc4ccccc4)cc3)c3c(N)ncnc32)C1 [Compound 4-AAM, reference compound] | 8.9 |
| C=CC(=O)N1CCC[C@@H](n2nc(-c3ccc(Oc4ccccc4)cc3)c3c(NC(=O)OCC(C)C)ncnc32)C1 | 2.5 |
| C=CC(=O)N1CCC[C@@H](n2nc(-c3ccc(Oc4ccccc4)cc3)c3c(NC(=O)OCCCC)ncnc32)C1 | 1.3 |
| C=CC(=O)N1CCC[C@@H](n2nc(-c3ccc(Oc4ccccc4)cc3)c3c(NC(=O)OC(C)C)ncnc32)C1 | 1.7 |
| C=CC(=O)N1CCC[C@@H](n2nc(-c3ccc(Oc4ccccc4)cc3)c3c(NC(=O)OCCCCCC)ncnc32)C1 | 1.3 |
